Data provenance is PubChem BioAssay (NCI).

# growth inhibition per record follows
- assayNotes: NCI Yeast Anticancer Drug Screen. Data for the mec2-1 strain (AID 157)
- conditionsUsed: S. cerevisiae mec2-1 strain, at 50.0 µM, hits give high values
- Protocol: Growth inhibition of yeast strains with defined genetic alterations is measured as a screen for potential anti-cancer activity. Selected strains with alterations in DNA damage repair or cell cycle control were exposed to compounds and growth inhibition was measured relative to vehicle treated controls. The strain used in this assay is mec2-1
Compounds without any hit were thinned out: in the full panel of roughly 79,000, 15% have a hit.
The response must be a number in % with no trailing unit.

// solved cases for growth inhibition follow
Cc1nc(-c2nc(C)c(C(=O)NNC(=O)C[n+]3ccccc3)s2)sc1C(=O)NNC(=O)C[n+]1ccccc1 | 10.6
O/N=C1\CC2(N3CCOCC3)CCC1(Cc1ccccc1)CC2 | 52.6
O=C(CCCCl)CCCCl | -10.9
O=S(=O)(O)c1cccc2c1oc1ccccc12 | -37.4
OC12C=CC(CCCC1)O2 (centres undefined) | -6.65
O=C(O)c1ccc2c(c1)S(=O)(=O)c1ccccc1C2=O | 17.5

Would you kindly look at the next entry?
Incoming: Given the molecule C(=C\c1ccco1)/c1ccco1 , what is its reported growth inhibition?
Outgoing: 11.2

====

- assayNotes: NCI Yeast Anticancer Drug Screen. Data for the rad50 strain (AID 155);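 also: 0% = growth of vehicle-only cultures of the same strain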
- conditionsUsed: S. cerevisiae rad50 strain growth inhibition; at 50.0 µM
About 79,000 compounds went through this panel and 15% of them were active in at least one assay; those are over-represented in the sample as a whole. Calls of active or inactive are those of the source. Cut-off read from the data, not from the text of the source: active = growth inhibition above about 70%; inactive = the rest.
Write down the outcome that applies. Available outcomes: active, inactive

CC(NC(=O)C(C)(C)C)c1ccc2c(c1)OCCO2 (configuration not stated) | inactive
OC(c1ccccc1)(C(F)(F)F)C(F)(F)F | inactive
COC(=O)C(=O)C(C(=O)C=C(C)C)C(=O)C(=O)Nc1cc(C(F)(F)F)ccc1Cl (configuration not stated) | inactive
Clc1ccc(C2OCCO2)cc1 | inactive
NCCCNC/C=C/CNCCCN | inactive
c1c2c(cc3c1OCN(C1CC1)C3)OCN(C1CC1)C2 | inactive

Incoming: Entry CCOC(=O)/C(F)=C/c1ccc(C)cc1 : call = ?
Outgoing: inactive

Incoming: Entry CCCNC(C)=O : call = ?
Outgoing: inactive

Incoming: Entry O=C(Nc1ccccc1Cl)Nc1cccc2ccccc12 : call = ?
Outgoing: inactive

Incoming: Entry CCC(C(=O)O)C(C)(C)C (configuration not stated) : call = ?
Outgoing: inactive

Incoming: Entry CCOC(=O)C(C)(C)/C=C\C(Cl)=C(Cl)Cl : call = ?
Outgoing: inactive

Incoming: Entry O=C(Cn1ccnc1[N+](=O)[O-])c1ccc(F)cc1 : call = ?
Outgoing: inactive

Incoming: Entry COC(=O)CCSCCC(=O)OC : call = ?
Outgoing: inactive

Incoming: Entry NCCN(Cc1ccccc1)C1CC1 : call = ?
Outgoing: inactive

Incoming: Entry CCOC(=O)O/C(C)=C\c1ccccc1Cl : call = ?
Outgoing: inactive

Incoming: Entry Cc1nc(-c2nc(C)c(C(=O)NN(C)C)s2)sc1C(=O)NN(C)C : call = ?
Outgoing: inactive

Incoming: Entry O=C(Cc1ccccc1)NN(Cc1ccccc1)Cc1ccccc1 : call = ?
Outgoing: inactive

====

- assayNotes: NCI Yeast Anticancer Drug Screen. Data for the sgs1 mgt1 strain (AID 161);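 also: 0% = growth of cultures given vehicle only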
- conditionsUsed: S. cerevisiae sgs1 mgt1 strain, at 50.0 µM
About 79,000 compounds went through this panel and 15% of them were active in at least one assay; those are over-represented in the sample as a whole. Activity calls are given as the source filed them. Rule as the data show it: active = growth inhibition above about 70%; inactive = the rest.
Write down the outcome that applies. Available outcomes: YES (active), NO (inactive)

CCc1cccc(Nc2ccccc2C(=O)O)c1 | NO
O=C(O)CNC1CCCC1 | NO
CCN1C(=O)C(N=[N+]=[N-])(c2ccccc2)C(=O)c2ccccc21 (centres undefined) | NO
Brc1cn2[n+](c1)[B-]n1cc(Br)c[n+]1[B-]2 | NO
CC(C)=CCc1ccc2c(c1)CCCN2C | NO
O=S1Cc2nc3ccccc3n2C1c1c(F)cccc1F (centres undefined) | NO
CCOC(=O)/C(Cc1ccccc1[N+](=O)[O-])=N/O | NO
FC(F)(F)c1cccc(N=Cc2ccc(C=Nc3cccc(C(F)(F)F)c3)cc2)c1 | NO
CCOC(=S)SCC(=O)c1ccc(Br)cc1 | NO
O=C(O)c1cc(=O)c2c([nH]c3ccccc32)s1 | NO

Incoming: Entry CC(=O)OC1C(=O)OC(=O)C1OC(C)=O (centres undefined) : call = ?
Outgoing: NO

Incoming: Entry CCOC(=O)Nc1cc(Cl)c2nnn(C(=O)OCC)c2n1 : call = ?
Outgoing: YES
